target: T1, His-labeled human CD3E (human, UniProt P07766 23-126); experiment: BLI (Octet), method of Example 3: His-labeled human CD3E on Ni-NTA sensors
T1 construct: also called human CD3E antigen; antigen CD3E; not shown: His label
T1 sequence (P07766 23-126): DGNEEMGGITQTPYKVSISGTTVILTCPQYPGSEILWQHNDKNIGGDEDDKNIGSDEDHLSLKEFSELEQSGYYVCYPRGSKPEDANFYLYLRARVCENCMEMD
Hi there, I'd appreciate the recorded Kd for every entry that follows.
// units = nM; emit number, no label

Kd for humanized antibody AB624 (antibody, V domains shown) VH: EVQLLESGGGLVQPGGSLKLSCAASGFTFNTYAMNWVRQAPGKGLEWVGRIRSKINNYATYYADSVKDRFTISRDDSKNTAYLQMNNLKTEDTAMYYCVRHDNFHGSTYSWFADWGQGTLVTVSS VL: ELVVTQEPSLTVSPGGTVTLTCRSSTGVVTTSNYANWVQEKPDHLFTGLIGATNYRAPGTPARFSGSLLGGKAALTLSGVQPEDEAIYFCVLWYSNHWVFGGGTKLTVL ?
0.677

Kd for humanized antibody AB617 (antibody, V domains shown) VH: EVQLLESGGGLVQPGGSLKLSCAASGFTFNDYAMNWVRQAPGKGLEWVGRIRSKINNYATYYADSVKDRFTISRDDSKNTAYLQMNNLKTEDTAMYYCVRHDNFYGSTYSWFADWGQGTLVTVSS VL: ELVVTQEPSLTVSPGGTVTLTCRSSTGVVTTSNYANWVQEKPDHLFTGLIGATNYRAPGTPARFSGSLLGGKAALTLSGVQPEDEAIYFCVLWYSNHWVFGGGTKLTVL ?
2.77

Kd for humanized antibody AB626 (antibody, V domains shown) VH: EVQLLESGGGLVQPGGSLKLSCAASGFTFNTYAMNWVRQAPGKGLEWVGRIRSKINNYATYYADSVKDRFTISRDDSKNTAYLQMNNLKTEDTAMYYCVRHDNFYGSTYSHFADWGQGTLVTVSS VL: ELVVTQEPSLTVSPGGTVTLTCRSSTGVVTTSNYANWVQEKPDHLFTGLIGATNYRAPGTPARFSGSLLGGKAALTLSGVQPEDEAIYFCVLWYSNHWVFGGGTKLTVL ?
182
